Listing: pIC50 of selected compounds
- System Under Test: TAK1-TAB1 fusion protein (Homo sapiens)
- Construct: purchased Carna
- Sequence (O43318 with tags, fused parts or gaps limits assumed): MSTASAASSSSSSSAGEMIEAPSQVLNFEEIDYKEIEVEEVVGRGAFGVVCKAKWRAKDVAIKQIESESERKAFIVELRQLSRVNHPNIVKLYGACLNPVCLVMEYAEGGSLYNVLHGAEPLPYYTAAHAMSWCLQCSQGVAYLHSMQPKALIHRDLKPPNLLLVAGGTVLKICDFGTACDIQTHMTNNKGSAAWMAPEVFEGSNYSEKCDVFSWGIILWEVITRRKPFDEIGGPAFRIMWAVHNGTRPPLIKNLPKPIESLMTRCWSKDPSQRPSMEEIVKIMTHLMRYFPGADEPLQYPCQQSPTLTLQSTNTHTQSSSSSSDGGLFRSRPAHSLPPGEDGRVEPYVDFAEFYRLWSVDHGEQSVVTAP
- Assay Remarks: TAK1 biochemical assay (AlphaScreen, GST-MAP2K7 substrate)
- Experimental Context: TAK1-TAB1 fusion protein, GST-MAP2K7 substrate; read-out: mean TAK1 IC50 (Col. A)
pIC50: −log10 of the molar value. Structures can show the parent of a compound that is named as a salt.

> print(dat)
                                   compound  reported.property  experimental.result
1  Nc1ncc(-c2cnn([C@H]3CC[C@H](O)CC3)c2)c2cc(-c3c(F)ccc4nnsc34)oc12 [Example 272, diformate salt]              pIC50               > 7.00
2  CC(=O)N1CCC(n2cc(-c3cnc(N)c4oc(-c5csc6cnccc56)cc34)cn2)CC1              pIC50               > 7.00
3  Nc1ncc(-c2cnn([C@H]3CC[C@H](O)CC3)c2)c2cc(-c3cc(F)cc4cnsc34)oc12 [Example 238, diformate salt]              pIC50         6.00 to 7.00
4  Cc1csc(-c2cnc(N)c3oc(-c4csc5cnccc45)cc23)c1              pIC50         5.00 to 6.00
5  COC(=O)c1cc(-c2cnc(N)c3oc(-c4csc5cnccc45)cc23)cs1              pIC50               < 5.00
6  CC(=O)N1CCC(n2cc(-c3cnc(N)c4oc(-c5c(F)ccc6nnsc56)cc34)cn2)CC1              pIC50               > 7.00

-- ask Query: pIC50; subject: N#Cc1cc(-c2cc3c(-c4cnn([C@H]5CC[C@H](O)CC5)c4)cnc(N)c3o2)c2snnc2c1
-- reply 6.00 to 7.00

-- ask Query: pIC50; subject: Nc1ncc(-c2cnn([C@H]3CC[C@H](O)CC3)c2)c2c(Cl)c(-c3cccc4ncsc34)oc12
-- reply > 7.00

-- ask Query: pIC50; subject: Nc1ncc(-c2cnn(C3CCNCC3)c2)c2cc(-c3cccc(-c4nnn[nH]4)c3)oc12
-- reply 5.00 to 6.00

-- ask Query: pIC50; subject: CC(=O)N1CCC(n2cc(-c3cnc(N)c4oc(-c5ccc(Oc6ccccc6)cc5)cc34)cn2)CC1
-- reply < 5.00

-- ask Query: pIC50; subject: CNc1ncc(-c2cnn(C3CCN(C(C)=O)CC3)c2)c2cc(-c3c[nH]c4cnccc34)oc12 [Example 280, trifluoroacetic acid salt]
-- reply > 7.00

-- ask Query: pIC50; subject: CC(=O)N1CCC(n2cc(-c3cnc(N)c4oc(-c5cccc(OC(F)(F)F)c5)cc34)cn2)CC1
-- reply 5.00 to 6.00
